tested on: Staphylococcus aureus; test: Antibacterial activity against methicillin-sensitive Staphylococcus aureus Newman assessed as bacterial growth inhibition; type: functional
Observation type: MIC

Cpd smiles | MIC
CCCCNc1nc(SCCCC)nc2ccc(-c3cccnc3)cc12 | > 128 µg/mL
CC(=O)NC[C@H]1CN(c2ccc(N3CCOCC3)c(F)c2)C(=O)O1 | 1 µg/mL

For the 3 compounds below, give their MIC values.
1. CCCCSc1nc(SCCCC)c2cc(N)ccc2n1
2. CCCCNc1nc(SCCCC)nc2ccc(-c3ccc(C(=O)O)cc3)cc12
3. CCCCNc1nc(SCCCC)nc2cc(-c3ccccc3)ccc12

1. 8 µg/mL
2. > 128 µg/mL
3. > 128 µg/mL

For the 3 compounds below, give their MIC values.
1. CCCCNc1nc(SCCCC)nc2nn(CCCC)cc12
2. CCCCNc1nc(SCCCC)nc2cc(Br)ccc12
3. CCCCNc1nc(SCCCC)nc2ccc(F)cc12

> 128 µg/mL
> 128 µg/mL
> 128 µg/mL

====

system: Enterococcus faecalis; test: Antibacterial activity against Enterococcus faecalis DSM-20478 assessed as bacterial growth inhibition; type: functional
Observation type: MIC

Compound | Assay result
CN[C@H](CC(C)C)C(=O)N[C@H]1C(=O)N[C@@H](CC(N)=O)C(=O)N[C@H]2C(=O)N[C@H]3C(=O)N[C@H](C(=O)N[C@H](C(=O)O)c4cc(O)cc(O)c4-c4cc3ccc4O)[C@H](O)c3ccc(c(Cl)c3)Oc3cc2cc(c3O[C@@H]2O[C@H](CO)[C@@H](O)[C@H](O)[C@H]2O[C@H]2C[C@](C)(N)[C@H](O)[C@H](C)O2)Oc2ccc(cc2Cl)[C@H]1O [VANCOMYCIN] | 0.5 µg/mL
CCCCNc1nc(SCCCC)nc2ccc(-c3cccc(CO)c3)cc12 | > 128 µg/mL
CCCCNc1nc(SCCCC)nc2ccc(Cl)cc12 | > 128 µg/mL
CCCCNc1nc(SCCCC)nc2ccc(-c3cccc(OC)c3)cc12 | > 128 µg/mL

Bench note: what MIC did CCCCNc1nc(SCCCC)nc2sccc12 show? > 128 µg/mL

====

Kindly state MIC for each of the entries shown.
test system: Staphylococcus aureus; test: Antibacterial activity against methicillin-sensitive Staphylococcus aureus Newman assessed as bacterial growth inhibition; format: functional

For the 6 compounds below, give their MIC values.
1. CCCCNc1nc(SCCCC)nc2ccc(-c3ccncc3)cc12
2. CCCCNc1nc(SC)nc2n[nH]cc12
3. CCCCNc1nc(SCCCC)nc2cc(Cl)ccc12
4. CCCCSc1nc(SCCCC)c2cc(NS(=O)(=O)CC)ccc2n1
5. CCCCNc1nc(SCCCC)nc2cc(-c3cccnc3)ccc12
6. CCCCNc1nc(SCCCC)nc2ccc(-c3cccc(OC)c3)cc12

["> 128 µg/mL", "64 µg/mL", "> 128 µg/mL", "> 128 µg/mL", "> 128 µg/mL", "> 128 µg/mL"]

For the 8 compounds below, give their MIC values.
1. CCCCNc1nc(SCCCC)nc2ccc(-c3cccc(C#N)c3)cc12
2. CCCCNc1nc(SCCCC)nc2ccccc12
3. CCCCNc1nc(SCCCC)nc2c1cnn2CCCC
4. CCCCNc1nc(SCCCC)nc2ccc(-c3ccccc3)cc12
5. CCCCNc1nc(SCCCC)nc2ccc(NC(=O)NCC)cc12
6. CCCCNc1nc(SCCCC)nc2ccc(-c3cccc(CO)c3)cc12
7. CCCCNc1nc(SCCCC)nc2ccc(Cl)cc12
8. CCCCNc1nc(SCCCC)nc2ccc(-c3cccc(O)c3)cc12

1. > 128 µg/mL
2. 8 µg/mL
3. > 128 µg/mL
4. > 128 µg/mL
5. > 128 µg/mL
6. > 128 µg/mL
7. > 128 µg/mL
8. 2 µg/mL

For the 2 compounds below, give their MIC values.
1. CCCCNc1nc(SCCCC)nc2cc(F)ccc12
2. CCCCNc1nc(SCCCC)nc2n[nH]cc12

["> 128 µg/mL", "> 128 µg/mL"]
